Values were extracted from patent US20230265151A1.

Target: T1, human GLP-1 receptor (human, UniProt P43220 24-463)
T1 construct: whole, on cells; also called hGLP-1R; human glucagon-like peptide-1 receptor
Experiment: SPA competition vs [125I]-GLP-1, hGLP-1R membranes
pKi: −log10 of the molar value.
Decision: pKi >= 9 yields Condition met, all other cases yield Condition not met.

[
  {
    "binder": "YXEGTXTSDYXIXLDXIAQXXFIKXLIKGGPSSGAPPPS (Aib2, αMeF(2F)6, Aib11, αMeL13, Orn16, Aib20, Orn21, K24(Z1), αMeY25, K28(Z1), C-term NH2; Z1=AEEA3-(γ-Glu)-(10-(4-carboxyphenoxy)decanoyl))",
    "qualitative label": "Condition met"
  },
  {
    "binder": "YXEGTXTSDXSIXLDXIAQXKFIXXLIKGGPSSGAPPPS (Aib2, αMeF(2F)6, 4Pal10, αMeL13, Orn16, Aib20, K21(Z1), D-Glu24, αMeY25, K28(Z1), C-term NH2; Z1=AEEA2-(γ-Glu)-CO-(CH2)12-CO2H)",
    "qualitative label": "Condition not met"
  },
  {
    "binder": "YXEGTXTSDXXIXLDXQAQXXFIKXLIKGGPSSGAPPPS (Aib2, αMeF(2F)6, 4Pal10, Aib11, αMeL13, Orn16, Aib20, Orn21, K24(Z1), αMeY25, K28(Z1), C-term NH2; Z1=PEG5-(γ-Glu)-(10-(4-carboxyphenoxy)decanoyl))",
    "qualitative label": "Condition met"
  },
  {
    "binder": "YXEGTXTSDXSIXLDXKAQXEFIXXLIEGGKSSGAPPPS (Aib2, αMeF6, 4Pal10, αMeL13, Orn16, K17(Z1), Aib20, D-Glu24, αMeY25, K31(Z1), C-term NH2; Z1=AEEA2-(γ-Glu)-CO-(CH2)12-CO2H)",
    "qualitative label": "Condition not met"
  },
  {
    "binder": "YXEGTXTSDXXIXLDXKAQXXFIXXLIKGGPSSGAPPPS (Aib2, αMeF(2F)6, 4Pal10, Aib11, αMeL13, Orn16, K17(Z1), Aib20, Orn21, D-Glu24, αMeY25, K28(Z1), C-term NH2; Z1=AEEA2-(γ-Glu)-CO-(CH2)10-CH3)",
    "qualitative label": "Condition met"
  },
  {
    "binder": "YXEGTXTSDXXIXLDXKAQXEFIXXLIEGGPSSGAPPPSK (Aib2, αMeF(2F)6, 4Pal10, Aib11, αMeL13, Orn16, K17(Z1), Aib20, D-Glu24, αMeY25, K40(Z1), C-term NH2; Z1=AEEA-(γ-Glu)-CO-(CH2)12-CO2H)",
    "qualitative label": "Condition not met"
  }
]
